- test.system: T1, recombinant human SOST (rhSOST) (human, UniProt Q9BQB4 24-213)
- T1 construct: Treated as one molecule; also called recombinant human SOST protein; human sclerostin
- T1 sequence: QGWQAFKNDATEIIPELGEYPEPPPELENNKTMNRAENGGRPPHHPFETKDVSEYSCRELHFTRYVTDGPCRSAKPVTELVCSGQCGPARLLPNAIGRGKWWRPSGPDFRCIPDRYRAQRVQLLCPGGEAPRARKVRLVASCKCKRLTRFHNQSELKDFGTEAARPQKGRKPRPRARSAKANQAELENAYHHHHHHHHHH
- experimental.details: SPR Biacore T200, IgG captured via anti-human Fc, rhSOST analyte, 37 C
readout: kon (M⁻¹ s⁻¹)
Write the answer as a number in M⁻¹ s⁻¹, unit excluded.

Reference set (2 entries):
>  <binder>
DM4 (antibody, human IgG2, kappa, V domains shown, mAb names lost in this copy; also called mH10/mL13) VH: EVQLLESGGGLVQPGGSLRLSCAASGHTFSDYWMQWVRQAPGKGLEWVGAIYPGDGDTRYNQKFKDRFTISRDNSKNTLYLQMNSLRAEDTAVYYCARSMDYWGQGTLVTVSS VL: DIVMTQSPDSLAVSLGERATINCRASKTVDSYGNSFMHWFQQKPGQPPKLLIHHSSNLESGVPDRFSGSGSGTDFTLTISSLQAEDVAVYYCLQTIEFPYTFGQGTKLEIKR

>  <unit.label>
M⁻¹ s⁻¹

>  <test.result>
3.91e+06

$$$$
>  <binder>
DM6 (antibody, V domains shown, also called mH10/mL17) VH: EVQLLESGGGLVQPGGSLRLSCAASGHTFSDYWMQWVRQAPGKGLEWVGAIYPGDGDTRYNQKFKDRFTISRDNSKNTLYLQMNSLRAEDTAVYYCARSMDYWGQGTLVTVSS VL: DIVMTQSPDSLAVSLGERATINCRASKTVDSYGNSFMHWYQQKPGQPPKLLIYHSSNLESGVPDRFSGSGSGTDFTLTISSLQAEDVAVYYCLQTIEFPYTFGQGTKLEIK

>  <unit.label>
M⁻¹ s⁻¹

>  <test.result>
2.12e+06

$$$$

# context switch: different binder, same kon
Lookup: Record request: kon value, item DM24 (antibody, V domains shown, also called mH3/mL2) VH: EVQLLESGGGLVQPGGSLRLSCAASGFTFSDYWMQWVRQAPGKGLEWIGAIYPGDGDTRYNQKFKDRFTISRDNSKNTLYLQMNSLRAEDTAVYYCARSMDYWGQGTLVTVSS VL: DIVMTQSPDSLAVSLGERATINCRASKTVDSYGNSFMHWFQQKPGQPPKLLIYHSSNLESGVPDRFSGSGSGTDFTLTISSLQAEDVAVYYCLQTIEDPYTFGQGTKLEIK
Found: 6.9e+06
